# Tested on: UACC-62 melanoma
# test protocol: NCI-60 one-dose screen, 48 h
# test parameters: 10 µM unless noted
The panel holds about 83,000 compounds, 20% with a hit somewhere; the sample as a whole holds those more often. Calls of active or inactive are those of the source. The calls were made as follows: active = growth percent below 10; inactive = the rest.
Classes to choose from: active, inactive

For C=CC(=O)N1CC2(CC(n3nc(-c4ccc(Oc5ccccc5)cc4)c4c(N)ncnc43)C2)C1 , which call appears in the assay record?
active

For COc1ccc(/C=N/NC(=O)c2cnn(CC(O)Cc3ccccc3)c2N)cc1OC1CCCC1 (configuration not stated) , which call appears in the assay record?
inactive

For O=C(c1ccccc1)C(Br)C(Br)c1cccc([N+](=O)[O-])c1 (configuration not stated) , which call appears in the assay record?
inactive

For O=C(N/N=C/c1ccc2c(c1)OCO2)c1cnn2c1NC(c1ccccc1)C2 (configuration not stated) , which call appears in the assay record?
inactive

For CC(C)(C)[Si](C)(C)OC1[C@@H](O[Si](C)(C)C(C)(C)C)[C@@H](CNC(=O)NC(=O)C(F)(F)F)O[C@H]1n1cnc2c(NC(=O)Nc3ccccc3)ncnc21 (some centres not stated) , which call appears in the assay record?
inactive

For COc1ccc(C(=O)COc2cccc(/C=C3\CSc4ccc(C)cc4C3=O)c2)cc1 , which call appears in the assay record?
inactive

For O=S(=O)(Nc1ncccn1)c1ccc(Nc2ccc3nnc(-c4ccncc4)n3n2)cc1 , which call appears in the assay record?
inactive

For Cn1c2c(cc(S(=O)(=O)c3ccccc3)c1=O)CCc1c-2cnn1-c1ccccc1Cl , which call appears in the assay record?
inactive

For C=C[C@H]1C[C@@H]2C[C@@H]3[C@H]4C/C=C\C(=O)NCCCC5NC(=O)C(=C(O)/C=C/[C@@H]4CC(=O)[C@H]3[C@@H]2[C@H]1C)C5=O (some centres not stated) , which call appears in the assay record?
active

For O=[N+]([O-])c1ccc(O)c2ncccc12 , which call appears in the assay record?
inactive

For O=C1/C(=C/c2ccc(Cl)cc2)N=C(c2ccccc2)N1CCc1cccs1 , which call appears in the assay record?
inactive

For Cc1nn(-c2ccccc2)c2nc3nc4c(c(N)c3c(-c3ccc(Cl)cc3)c12)CCC4 , which call appears in the assay record?
inactive

For COc1cc(/C=N/NC(=O)c2cnn3c2NC(c2ccccc2)C3)cc(OC)c1OC (configuration not stated) , which call appears in the assay record?
inactive

For Cc1ccc(S(=O)(=O)N2CCc3ccc(O)c4c3C2Cc2cc(Cl)ccc2-4)cc1 (configuration not stated) , which call appears in the assay record?
inactive

For COC(=O)[C@H]1CCCN1C(=O)[C@H]1CCCN1C(=O)[C@@H](Cc1c[nH]c2ccccc12)NC(=S)Nc1cc(C(F)(F)F)cc(C(F)(F)F)c1 , which call appears in the assay record?
inactive

For NC(=S)N/N=C1\c2ccccc2-c2c(F)c(F)c(F)c(F)c21 , which call appears in the assay record?
inactive

For N#Cc1c(-c2cccc(F)c2)cc(-c2ccc(Br)s2)[nH]c1=O , which call appears in the assay record?
inactive

For Clc1ccc(Nc2nc(Nc3ccccc3)nc(Nc3ccc(-c4cc(-c5ccc(Cl)cc5)on4)cc3)n2)cc1 , which call appears in the assay record?
inactive

For O=C1c2c(O)ccc(O)c2C(=O)c2c(NCCNC(=O)C(O)C(O)C(O)C(O)CO)ccc(NCCNC(=O)C(O)C(O)C(O)C(O)CO)c21 (configuration not stated) , which call appears in the assay record?
active

For COc1cc(C(=O)N(C(C)C)C2CCCCC2)cc(OC)c1OC , which call appears in the assay record?
inactive

For CCCCC(O)Cn1ncc(C(=O)OCC)c1NC(=O)NCc1ccccc1C(F)(F)F (configuration not stated) , which call appears in the assay record?
inactive

For COc1ccc(Cn2c(Br)c3c(c2-c2cc(OC)c(OC)c(OC)c2)CCc2sc(N)nc2-3)cc1 , which call appears in the assay record?
inactive
